ASSAYED_TARGET: T1, Human HARS (human, UniProt P12081 1-509, limits assumed)
T1 construct: also called human HRS; human histidyl-tRNA synthetase
T1 sequence: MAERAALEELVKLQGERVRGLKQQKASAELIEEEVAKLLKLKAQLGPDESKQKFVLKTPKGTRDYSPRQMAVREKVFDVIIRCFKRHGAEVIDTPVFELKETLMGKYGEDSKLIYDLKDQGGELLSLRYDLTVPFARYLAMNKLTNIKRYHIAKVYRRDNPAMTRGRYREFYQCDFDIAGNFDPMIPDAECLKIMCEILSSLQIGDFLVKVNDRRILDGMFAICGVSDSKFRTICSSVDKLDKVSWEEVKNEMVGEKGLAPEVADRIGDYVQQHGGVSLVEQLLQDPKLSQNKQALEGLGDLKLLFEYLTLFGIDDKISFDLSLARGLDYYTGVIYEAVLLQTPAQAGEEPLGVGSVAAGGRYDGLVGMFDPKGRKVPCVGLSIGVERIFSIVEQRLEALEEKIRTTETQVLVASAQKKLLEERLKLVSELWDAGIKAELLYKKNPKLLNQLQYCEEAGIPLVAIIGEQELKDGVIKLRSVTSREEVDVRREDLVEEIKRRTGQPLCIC
RUN_DESCRIPTION: SPR (ProteOn); HRS protein immobilized, antibody as analyte
pKd: −log10 of the molar value.

>  <BINDER>
AB13-433 (antibody, V domains shown, Human; IgG1m(zf) kappa) VH: QVQLVESGGGLVKPGGSLRLSCAASGFTFSDYYMSWIRQAPGKGLEWVSYISDSSTYTNYTDSVRGRFTISRDNAKNSLYLQMNSLRAEDTAVYYCARYLYQVIAVADSWGQGTLVTVSS VL: DIQMTQSPSSVSASVGDRVTITCRASQGISSWLAWFQQKPGKAPKLLIYVASNLESGVPSRFSGSGSGTDFTLTISSLQPEDFATYYCQQANSFPYTFGQGTKLEIK

>  <pKd>
9.68

$$$$
>  <BINDER>
KL31-131 (antibody, V domains shown, Humanized; IgG1m(zf) kappa) VH: QVQLVQSGAEVKKPGASVKVSCKASGYTFTDYCIGWIRQAPGQGLEWMGDICPGDTYTNDNEKFKDRATMTADTSTSTAYMELSSLRSEDTAVYYCARGEEQLGLRNAMDYWGQGTLVTVSS VL: EIVLTQSPATLSLSPGERATLSCQSQSVSTSTYNYMHWYQQKPGQAPRLLIKYASNLESGIPDRFSGSGSGTDFTLTISRLEPEDFATYYCQHSWEIPWTFGGGTKVEIK

>  <pKd>
9.60

$$$$
>  <BINDER>
KL31-600 (antibody, human IgG1, V domains shown) VH: QVQLQQSGAELVRPGSSVRMSCKAVGYTFTDYCIGWIKQRPGHGLEWIGDICPGDAYTNDNEKFKDKATLTADTSSTTAYMQLSSLTSEDSAIYYCARGEEQVGLRNAMDYWGQGTSVTVSS VL: DIVLTQSPASLAVSLGQRATISCQSQSVSTSTYNYMHWYQQKPGQPPKLLIKYASNLESGVPARFSGSGSGTDFTLNIHPVEEEDTATYYCQHSWEIPWTFGGGTKLEIK

>  <pKd>
7.91

$$$$
